The following compounds are listed with their measured IC50 values.
- tested on: Gamma-secretase
- measurement description: Modulation of gamma secretase in human SH-SY5Y cells overexpressing wild type APP751 assessed as inhibition of amyloid beta (35 to 42 residues) formation incubated for overnight by ELISA
- Format: cell-based
Provide only the numeric value, understood in nM.

In [3]: df
Out[3]:
                                   compound  experimental_endpoint  unit_info  recorded_measurement
0  COc1nc(-c2csc(Nc3c4c(nn3C(C)C)CCC4)n2)ccc1-n1cnc(C)c1                   IC50         nM                    90

Name the reported IC50 value associated with the compound COc1nc(-c2csc(Nc3c4c(nn3CC(C)(C)O)CCCC4)n2)ccc1-n1cnc(C)c1
38

# repeat for COc1nc(-c2csc(Nc3c4c(nn3C3CCC3)CCCC4)n2)ccc1-n1cnc(C)c1
64

# repeat for CCn1nc(C(C)(C)C)cc1Nc1nc(-c2ccc(-n3cnc(C)c3)cc2)cs1
339

# repeat for COc1nc(-c2csc(Nc3c4c(nn3C(C)(C)C)CCCC4)n2)ccc1-n1cnc(C)c1
71

# repeat for COc1nc(-c2csc(Nc3c4c(nn3CCO)CCCC4)n2)ccc1-n1cnc(C)c1
144
